Hi there, I'd appreciate the recorded pest or weed control at 250 g/ha for every entry that follows.
Test system: EPHHL
Assay: Pre-emergence biological efficacy
Type: in vivo
Details: Euphorbia heterophylla, 312 h, evaluated after 13 days, read-out: damage to plant (100=total damage to plant; 0=no damage to plant)
Experimental: Seeds of weeds and/or crops were sown in standard soil in pots. […] The test plants were then grown under controlled conditions in the glasshouse (at 24/18° C., day/night; 15 hours light; 50% humidity) and watered twice daily. After 13 days the test was evaluated (100=total damage to plant; 0=no damage to plant).
API: value field is a number in %; no unit string.

Input line: Which measured pest or weed control at 250 g/ha value corresponds to CCOC(=O)C1(C)CC(c2cc(-c3ccccc3Cl)c(F)cc2Cl)=NO1 (centres unmarked) [Compound 1-19] ?
Output line: 0

Input line: Which measured pest or weed control at 250 g/ha value corresponds to CCOC(=O)C1(C)CC(c2cc(-c3ncc(F)cc3F)c(F)cc2Cl)=NO1 (centres unmarked) [Compound 1-551] ?
Output line: 50

Input line: Which measured pest or weed control at 250 g/ha value corresponds to CCOC(=O)C1(C)CC(c2cc(-c3cc(Cl)ncc3OC)c(F)cc2Cl)=NO1 (centres unmarked) [Compound 1-511] ?
Output line: 0

Input line: Which measured pest or weed control at 250 g/ha value corresponds to CCOC(=O)C1(C)CC(c2cc(-c3nc(C)cnc3C)c(F)cc2Cl)=NO1 (centres unmarked) [Compound 1-787] ?
Output line: 10

Input line: Which measured pest or weed control at 250 g/ha value corresponds to CCOC(=O)C1(C)CC(c2cc(-c3cnc(F)c(OC)c3)c(F)cc2Cl)=NO1 (centres unmarked) [Compound 1-415] ?
Output line: 0

Input line: Which measured pest or weed control at 250 g/ha value corresponds to CCOC(=O)C1(C)CC(c2cc(-c3cnc(F)c(F)c3)c(F)cc2Cl)=NO1 (centres unmarked) [Compound 1-391] ?
Output line: 0

Input line: Which measured pest or weed control at 250 g/ha value corresponds to CCOC(=O)C1(C)CC(c2cc(-c3cnccc3OC)c(F)cc2Cl)=NO1 (centres unmarked) [Compound 1-259] ?
Output line: 0

Input line: Which measured pest or weed control at 250 g/ha value corresponds to CCOC(=O)C1(C)CC(c2cc(-c3ncccc3Cl)c(F)cc2Cl)=NO1 (centres unmarked) [Compound 1-127] ?
Output line: 100

---

test system: ECHCG; assay: Post-emergence biological efficacy; assay type: in vivo; conditions: Echinochloa crus-galli, 312 h, evaluated after 13 days, read-out: damage to plant (100=total damage to plant; 0=no damage to plant)
measured_endpoint: pest or weed control at 250 g/ha (%)
API: value field is a number in %; no unit string.

Input line: Which measured pest or weed control at 250 g/ha value corresponds to CCOC(=O)C1(C)CC(c2cc(-c3cnc4c(c3)OC(F)(F)O4)ccc2C#N)=NO1 (centres unmarked) ?
Output line: 30

Input line: Which measured pest or weed control at 250 g/ha value corresponds to CCOC(=O)C1(C)CC(c2cc(-c3cc(C(F)(F)F)cnc3F)c(F)cc2Cl)=NO1 (centres unmarked) ?
Output line: 60

Input line: Which measured pest or weed control at 250 g/ha value corresponds to CCOC(=O)C1(C)CC(c2cc(-c3cnc(C(F)(F)F)cn3)c(F)cc2Cl)=NO1 (centres unmarked) ?
Output line: 100

Input line: Which measured pest or weed control at 250 g/ha value corresponds to CCOC(=O)C1(C)CC(c2cc(-c3cc(C)cc(F)n3)c(F)cc2Cl)=NO1 (centres unmarked) ?
Output line: 40

Input line: Which measured pest or weed control at 250 g/ha value corresponds to CCOC(=O)C1(C)CC(c2cc(-c3cnc4ccc(C(F)(F)F)cc4n3)c(F)cc2Cl)=NO1 (centres unmarked) ?
Output line: 0

Input line: Which measured pest or weed control at 250 g/ha value corresponds to CCOC(=O)C1(C)CC(c2cc(-c3cc(C)cnc3F)c(F)cc2Cl)=NO1 (centres unmarked) ?
Output line: 50

Input line: Which measured pest or weed control at 250 g/ha value corresponds to CCOC(=O)C1(C)CC(c2cc(-c3ccc(C(F)(F)F)cc3Cl)c(F)cc2Cl)=NO1 (centres unmarked) ?
Output line: 30

Input line: Which measured pest or weed control at 250 g/ha value corresponds to CCOC(=O)C1(C)CC(c2cc(-c3ccc(C)cc3Cl)c(F)cc2Cl)=NO1 (centres unmarked) ?
Output line: 30
